# ASSAYED_SYSTEM: E. coli DNA gyrase (Escherichia coli, UniProt P0AES4+P0AES6)
# Construct: made in house
# Format: biochemical
# MEASUREMENT_SETUP: 50 μM compound, duplicate
MEASURED_QUANTITY: hit in HTS pilot screen (inhibition ≥50% cutoff)

[[record]]
compound = "CCn1cc(C(=O)O)c(=O)c2cc(F)c(N3CCNC(C)C3)c(F)c21 (centres unmarked) [lomefloxacin]"
meas_value = "hits"

[[record]]
compound = "CCN1CCN(c2cc3c(cc2F)c(=O)c(C(=O)O)cn3C2CC2)CC1 [enrofloxacin]"
meas_value = "hits"

[[record]]
compound = "CCn1cc(C(=O)O)c(=O)c2cc(F)c(N3CCNCC3)cc21 [norfloxacin]"
meas_value = "hits"

[[record]]
compound = "CCn1cc(C(=O)O)c(=O)c2cc3c(cc21)OCO3 [oxolinic acid]"
meas_value = "hits"


Shift focus to the following entry.
Report hit in HTS pilot screen (inhibition ≥50% cutoff) for CCn1cc(C(=O)O)c(=O)c2ccc(C)nc21 [nalidixic acid] please.
hits
